Let's go through some MIC measurements on Staphylococcus aureus together.
Use µM as the unit, but write only the number.

CC[C@H](C)[C@H](NC(=O)[C@H](Cc1ccccc1)NC(=O)[C@@H](N)Cc1ccccc1)C(=O)N[C@@H](Cc1ccccc1)C(=O)N[C@@H](Cc1ccccc1)C(=O)N[C@@H](Cc1ccccc1)C(N)=O :: 14.8
CC(C)C[C@H](NC(=O)[C@H](CCCCN)NC(=O)[C@H](Cc1ccccc1)NC(=O)[C@@H](NC(=O)[C@H](CO)NC(=O)CNC(=O)[C@H](CC(C)C)NC(=O)[C@@H](N)Cc1ccccc1)C(C)C)C(=O)N[C@@H](C)C(=O)N[C@@H](CO)C(=O)N[C@@H](CCCCN)C(=O)N[C@H](C(=O)N[C@@H](Cc1ccccc1)C(=O)N1CCC[C@H]1C(=O)N[C@@H](C)C(=O)N[C@H](C(=O)N[C@@H](Cc1ccccc1)C(=O)NCC(=O)N[C@@H](CCCCN)C(=O)N[C@H](C(=O)O)C(C)C)C(C)C)C(C)C :: 29.9

Query: Which MIC reading was recorded for the compound CC[C@H](C)[C@H](NC(=O)[C@H](CC(C)C)NC(=O)[C@H](Cc1cnc[nH]1)NC(=O)CNC(=O)[C@H](CC(C)C)NC(=O)[C@@H](NC(=O)[C@H](CCCCN)NC(=O)[C@H](CO)NC(=O)[C@H](Cc1c[nH]c2ccccc12)NC(=O)[C@H](CCSC)NC(=O)CN)[C@@H](C)CC)C(N)=O ?
Result: 15.5
